Origin of the recorded values: patent US7074789B2

Some molecules, each annotated with its measured IC50.
- Experimental target: IGFR-1 (Homo sapiens, UniProt P08069)
- Construct: Kinases are expressed as either kinase domains or full length constructs; made in house
- Sequence (P08069 31-1367): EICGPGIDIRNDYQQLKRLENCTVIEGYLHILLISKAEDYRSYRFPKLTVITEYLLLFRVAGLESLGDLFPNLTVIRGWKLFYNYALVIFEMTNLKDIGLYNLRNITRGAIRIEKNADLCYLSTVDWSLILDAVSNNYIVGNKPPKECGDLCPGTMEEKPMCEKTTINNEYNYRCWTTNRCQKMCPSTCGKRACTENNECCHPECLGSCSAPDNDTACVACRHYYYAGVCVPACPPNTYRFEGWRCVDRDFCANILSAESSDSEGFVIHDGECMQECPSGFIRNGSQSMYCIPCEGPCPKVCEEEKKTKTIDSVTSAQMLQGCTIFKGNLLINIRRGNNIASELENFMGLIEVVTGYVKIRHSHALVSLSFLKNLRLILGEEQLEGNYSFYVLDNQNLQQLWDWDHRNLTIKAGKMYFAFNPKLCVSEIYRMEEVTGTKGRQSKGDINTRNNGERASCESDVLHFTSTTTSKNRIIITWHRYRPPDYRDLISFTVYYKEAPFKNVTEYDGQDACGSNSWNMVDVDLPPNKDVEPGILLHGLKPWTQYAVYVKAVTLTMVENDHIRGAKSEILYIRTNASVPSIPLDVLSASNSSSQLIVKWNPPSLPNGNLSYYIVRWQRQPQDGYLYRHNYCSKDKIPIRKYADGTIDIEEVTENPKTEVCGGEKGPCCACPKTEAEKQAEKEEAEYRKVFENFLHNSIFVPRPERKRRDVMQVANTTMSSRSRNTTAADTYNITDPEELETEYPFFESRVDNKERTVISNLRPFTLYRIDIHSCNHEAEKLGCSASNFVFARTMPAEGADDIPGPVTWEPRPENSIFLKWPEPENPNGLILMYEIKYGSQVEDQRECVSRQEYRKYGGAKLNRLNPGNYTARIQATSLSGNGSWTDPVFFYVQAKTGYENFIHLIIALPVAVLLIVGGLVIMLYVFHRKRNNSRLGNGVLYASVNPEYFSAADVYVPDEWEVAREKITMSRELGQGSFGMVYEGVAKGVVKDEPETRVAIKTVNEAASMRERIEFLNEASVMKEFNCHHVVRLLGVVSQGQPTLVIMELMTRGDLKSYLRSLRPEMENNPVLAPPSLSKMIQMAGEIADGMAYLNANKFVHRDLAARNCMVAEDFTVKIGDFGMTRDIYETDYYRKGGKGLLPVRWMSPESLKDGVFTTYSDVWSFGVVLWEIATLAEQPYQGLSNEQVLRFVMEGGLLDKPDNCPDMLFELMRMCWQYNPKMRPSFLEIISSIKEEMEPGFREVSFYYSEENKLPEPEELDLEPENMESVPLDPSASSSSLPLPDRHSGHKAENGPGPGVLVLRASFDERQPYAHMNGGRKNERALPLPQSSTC
- Protocol notes: Kinase inhibition assay, IGFR-1 (Table 2)
- Assay type: biochemical
- Experimental context: Table 2, kinase inhibition class

Structure smiles	Experimental target	IC50
COc1cc(Nc2ncnc(Nc3cc(-c4cccc(C)c4)n[nH]3)n2)cc(OC)c1OC	IGFR-1 (Homo sapiens, UniProt P08069)	< 0.923 µM
CC(=O)c1ccc(Nc2ncnc(Nc3ccc4c(cnn4Cc4ccccc4)c3)n2)cc1	IGFR-1 (Homo sapiens, UniProt P08069)	0.919 to 5.51 µM
Cc1ccc2c(c1)CCCN2c1ncnc(Nc2cccc(CO)c2)n1	IGFR-1 (Homo sapiens, UniProt P08069)	10.1 to 13 µM
COc1cc(Nc2ncnc(-n3c(NCc4ccc(F)cc4)nc4ccccc43)n2)cc(OC)c1OC	IGFR-1 (Homo sapiens, UniProt P08069)	> 8.97 µM
c1ccc(CCNc2ncnc(Nc3ccc4c(cnn4Cc4ccccc4)c3)n2)cc1	IGFR-1 (Homo sapiens, UniProt P08069)	5.69 to 8.3 µM

Reported IC50, molecule `COc1cc(Nc2ncnc(-n3nc(-c4ccccc4)cc3N)n2)cc(OC)c1OC` : ____
0.954 to 5.72 µM

Reported IC50, molecule `COc1cc(Br)ccc1Nc1nc2ccccc2n1-c1ncnc(Nc2cc(OC)c(OC)c(OC)c2)n1` : ____
> 7.78 µM

---

- Experimental target: IGFR-1 (Homo sapiens)
- Construct: Kinases are expressed as either kinase domains or full length constructs; made in house
- Protocol notes: Kinase inhibition assay (33P transfer), IGFR-1
- Assay type: biochemical
- Experimental context: Table 2, class symbols A-E
Endpoint: IC50

Structure smiles	IC50
Brc1cccc(Nc2ncnc(Nc3cccc(Cn4ccnn4)c3)n2)c1	0.945 to 5.67 µM

Reported IC50, compound `COc1ccc(Nc2ncnc(N(C)c3ccccc3OC(F)(F)F)n2)cc1OC` : ____
> 10.7 µM

Reported IC50, compound `c1coc(-c2cc(Nc3ncnc(Nc4ccc(-c5csnn5)cc4)n3)n[nH]2)c1` : ____
< 0.991 µM

Reported IC50, compound `Fc1ccc(CNc2ncccc2-c2ncnc(Nc3ccc4[nH]ncc4c3)n2)cc1` : ____
5.82 to 8.49 µM

Reported IC50, compound `c1ccc(Nc2ncccc2-c2ncnc(Nc3cccc(Cn4ccnn4)c3)n2)cc1` : ____
> 10.7 µM

Reported IC50, compound `Cc1ccc2c(c1)CCCN2c1ncnc(NCc2ccc(C(=O)O)cc2)n1` : ____
> 12 µM

Reported IC50, compound `Fc1cccc(CNc2nc3ccccc3n2-c2ncnc(Nc3cccc(Cn4ccnn4)c3)n2)c1` : ____
> 9.14 µM

Reported IC50, compound `C=CCN(c1cccc(Cl)c1)c1ncnc(Nc2cc(OC)cc(OC)c2)n1` : ____
8.8 to 11.3 µM

---

Some compounds, each annotated with its measured IC50.
- Experimental target: IGFR-1 (Homo sapiens, UniProt P08069)
- Construct: Kinases are expressed as either kinase domains or full length constructs; made in house
- Protocol notes: Kinase inhibition assay, IGFR-1 (Table 2)
- Assay type: biochemical
- Experimental context: Table 2, kinase inhibition class

// solved cases for IC50 follow
Compound	IC50
COCCCNc1ncnc(N2CCCc3cc(C)ccc32)n1	> 14.4 µM
COc1cc(C)c(Nc2ncnc(Nc3cc(-c4ccccc4)n[nH]3)n2)cc1OC	< 0.991 µM
Cc1cccc(Nc2ncnc(N3CCCc4ccc(C(F)(F)F)cc43)n2)c1	> 11.7 µM
C=CCNC(=O)c1ccc(-c2cc(Nc3ncnc(Nc4cc(OC)c(OC)c(OC)c4)n3)[nH]n2)cc1	0.796 to 4.78 µM
CCCN(CC1CC1)c1ncnc(Nc2cc(OC)c(OC)c(OC)c2)n1	> 12 µM

Observed IC50 on IGFR-1 (Homo sapiens, UniProt P08069) for `Nc1nc2ccccc2n1-c1ncnc(Nc2ccccc2)n1` , please.
< 1.32 µM

Observed IC50 on IGFR-1 (Homo sapiens, UniProt P08069) for CN(c1cccc(Cl)c1)c1ncnc(NCC2CCCO2)n1 (stereo not drawn) , please.
> 14.1 µM

Observed IC50 on IGFR-1 (Homo sapiens, UniProt P08069) for `COc1cc(Nc2ncnc(Nc3ccc4c(cnn4C)c3)n2)cc(OC)c1OC` , please.
< 0.982 µM

Observed IC50 on IGFR-1 (Homo sapiens, UniProt P08069) for `COc1cc(Nc2ncnc(-n3c(NCc4cccc([N+](=O)[O-])c4)nc4ccccc43)n2)cc(OC)c1OC` , please.
> 8.51 µM

---

Some molecules, each annotated with its measured pIC50.
- Experimental target: Itk (Homo sapiens, UniProt Q08881)
- Construct: Kinases are expressed as either kinase domains or full length constructs; made in house
- Sequence (Q08881 1-620): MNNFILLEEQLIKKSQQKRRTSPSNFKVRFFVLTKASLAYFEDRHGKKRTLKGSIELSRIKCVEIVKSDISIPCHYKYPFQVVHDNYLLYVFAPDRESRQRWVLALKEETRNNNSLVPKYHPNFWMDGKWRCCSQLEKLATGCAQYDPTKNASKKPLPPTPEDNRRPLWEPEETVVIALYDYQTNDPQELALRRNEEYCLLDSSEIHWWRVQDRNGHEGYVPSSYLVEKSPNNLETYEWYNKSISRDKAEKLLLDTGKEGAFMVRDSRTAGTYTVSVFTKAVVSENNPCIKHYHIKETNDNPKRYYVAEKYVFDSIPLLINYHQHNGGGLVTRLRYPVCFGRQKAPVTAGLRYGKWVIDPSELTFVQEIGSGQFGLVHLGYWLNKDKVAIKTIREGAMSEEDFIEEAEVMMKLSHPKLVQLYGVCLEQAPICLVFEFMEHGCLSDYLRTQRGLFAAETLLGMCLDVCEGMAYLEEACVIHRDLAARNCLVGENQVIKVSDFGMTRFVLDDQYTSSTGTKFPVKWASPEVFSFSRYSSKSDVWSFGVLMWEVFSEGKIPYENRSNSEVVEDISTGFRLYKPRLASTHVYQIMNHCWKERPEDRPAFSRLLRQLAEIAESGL
- Protocol notes: Kinase inhibition assay (33P transfer), Itk
- Assay type: biochemical
- Experimental context: Table 3, class symbols; read-out: Itk-1
- Procedure: The inhibitor compounds described herein are screened in the following manner. […] Kinases are expressed as either kinase domains or full length constructs fused to glutathione S-transferase (GST) or polyHistidine tagged fusion proteins in either E. colior Baculovirus-High Five expression systems. […] Kinase activity and inhibition are measured essentially by established protocols (Braunwalder et al., 1996). […]
pIC50: −log10 of the molar value.

Structure smiles	Experimental target	pIC50
OCc1cccc(Nc2ncnc(-c3cccnc3NCc3ccccc3)n2)c1	Itk (Homo sapiens, UniProt Q08881)	< 4.93
COc1ccc(Nc2ncnc(Nc3ccc4c(cnn4Cc4ccccc4)c3)n2)cc1	Itk (Homo sapiens, UniProt Q08881)	5.25 to 6.02
O=C(O)Cc1cccc(Nc2ncnc(-c3cccnc3Nc3ccccc3)n2)c1	Itk (Homo sapiens, UniProt Q08881)	< 4.95

The record that follows has no pIC50 shown yet.
Reported pIC50, molecule `CCOc1ccc(Nc2ncnc(Nc3cc(-c4ccc(C(=O)OC)cc4)n[nH]3)n2)cc1` : ____
4.98 to 5.09

---

- Experimental target: Fyn (Homo sapiens, UniProt P06241)
- Sequence (P06241 whole entry, species assumed): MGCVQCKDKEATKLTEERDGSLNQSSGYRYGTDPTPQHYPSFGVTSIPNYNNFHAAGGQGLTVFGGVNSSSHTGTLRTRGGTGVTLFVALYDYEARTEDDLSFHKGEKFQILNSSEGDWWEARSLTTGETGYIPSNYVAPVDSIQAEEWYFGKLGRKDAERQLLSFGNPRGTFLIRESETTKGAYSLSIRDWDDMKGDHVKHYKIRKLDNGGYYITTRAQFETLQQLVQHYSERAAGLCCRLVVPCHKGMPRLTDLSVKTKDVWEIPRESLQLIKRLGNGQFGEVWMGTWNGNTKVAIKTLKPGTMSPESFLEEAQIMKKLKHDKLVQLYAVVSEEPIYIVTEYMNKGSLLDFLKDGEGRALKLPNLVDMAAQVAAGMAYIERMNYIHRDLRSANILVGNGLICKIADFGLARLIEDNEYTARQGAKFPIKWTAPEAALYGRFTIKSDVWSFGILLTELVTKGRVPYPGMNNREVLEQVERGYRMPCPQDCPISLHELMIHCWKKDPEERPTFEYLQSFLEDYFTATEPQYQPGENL
Some compounds, each annotated with its measured IC50.

Compound	Experimental target	IC50
CNc1nc2ccccc2n1-c1ncnc(Nc2cc(OC)c(OC)c(OC)c2)n1 [Compound 417]	Fyn (Homo sapiens, UniProt P06241)	5.89 to 8.59 µM

The record that follows has no IC50 shown yet.
Reported IC50, compound COc1cc(Nc2ncnc(-n3c(=O)[nH]c4ccccc43)n2)cc(OC)c1OC [Compound 325] : ____
6.09 to 8.87 µM

---

- Experimental target: EGFR (Homo sapiens, UniProt P00533)
- Construct: Kinases are expressed as either kinase domains or full length constructs; made in house
- Sequence (P00533 25-1210, species assumed): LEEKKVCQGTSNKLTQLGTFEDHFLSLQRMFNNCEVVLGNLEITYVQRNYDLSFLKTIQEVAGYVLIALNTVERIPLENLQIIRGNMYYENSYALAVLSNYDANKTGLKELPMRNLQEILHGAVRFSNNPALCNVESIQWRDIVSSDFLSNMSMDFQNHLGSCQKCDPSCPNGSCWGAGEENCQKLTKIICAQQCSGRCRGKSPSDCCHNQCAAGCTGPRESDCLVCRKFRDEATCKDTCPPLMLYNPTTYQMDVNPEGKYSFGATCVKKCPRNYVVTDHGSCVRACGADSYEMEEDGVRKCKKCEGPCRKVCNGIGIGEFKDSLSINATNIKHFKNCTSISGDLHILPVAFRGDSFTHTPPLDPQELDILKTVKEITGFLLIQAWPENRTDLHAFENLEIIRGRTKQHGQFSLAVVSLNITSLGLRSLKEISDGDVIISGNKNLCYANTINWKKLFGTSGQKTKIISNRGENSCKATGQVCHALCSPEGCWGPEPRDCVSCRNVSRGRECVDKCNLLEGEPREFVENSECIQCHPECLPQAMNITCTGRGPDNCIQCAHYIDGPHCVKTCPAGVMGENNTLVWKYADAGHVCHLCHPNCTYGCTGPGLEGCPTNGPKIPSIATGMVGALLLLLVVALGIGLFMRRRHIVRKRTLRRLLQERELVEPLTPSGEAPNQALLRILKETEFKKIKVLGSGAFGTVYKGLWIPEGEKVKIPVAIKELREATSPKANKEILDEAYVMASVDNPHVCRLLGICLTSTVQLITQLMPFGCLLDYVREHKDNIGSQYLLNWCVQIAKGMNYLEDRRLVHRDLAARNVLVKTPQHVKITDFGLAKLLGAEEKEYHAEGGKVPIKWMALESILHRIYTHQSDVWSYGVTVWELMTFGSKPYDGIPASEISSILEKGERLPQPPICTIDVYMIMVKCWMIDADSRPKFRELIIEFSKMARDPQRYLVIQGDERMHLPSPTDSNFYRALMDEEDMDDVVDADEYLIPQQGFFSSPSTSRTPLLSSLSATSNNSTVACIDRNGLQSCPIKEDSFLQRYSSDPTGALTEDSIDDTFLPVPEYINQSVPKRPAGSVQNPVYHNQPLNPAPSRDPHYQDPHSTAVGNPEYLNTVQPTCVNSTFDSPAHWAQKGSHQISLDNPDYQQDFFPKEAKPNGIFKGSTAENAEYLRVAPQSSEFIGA
- Protocol notes: Kinase inhibition assay (33P transfer), EGFR
- Assay type: biochemical
- Experimental context: Table 2, kinase inhibition class; read-out: EGFR-1
Some compounds, each annotated with its measured IC50.

// solved cases for IC50 follow
Structure smiles	Experimental target	IC50
COc1cc(Nc2ncnc(-n3c(Nc4ccccc4C(C)C)nc4ccccc43)n2)cc(OC)c1OC	EGFR (Homo sapiens, UniProt P00533)	> 8.8 µM
COc1ccc2c(c1)c(CCN(C)C)cn2-c1ncnc(Nc2cc(OC)c(OC)c(OC)c2)n1	EGFR (Homo sapiens, UniProt P00533)	> 9.4 µM
COc1ccc(Nc2ncnc(Nc3ccc(Oc4ccccc4)cc3)n2)cc1OC	EGFR (Homo sapiens, UniProt P00533)	< 0.963 µM

Reported IC50, compound `COc1cc(Nc2ncnc(-c3ccc(C)cc3)n2)cc(OC)c1OC` : ____
> 12.8 µM

Reported IC50, compound `COc1ccc(Nc2ncnc(N(C)c3ccc(Cl)c(Cl)c3)n2)cc1OC` : ____
< 0.985 µM
